Sourced from PubChem BioAssay (Tox21)

Test: qHTS assay for identifying genotoxic compounds that show differential cytotoxicity against isogenic chicken DT40 cell lines with known DNA damage response pathways - wild type cell line (AID 743012); note: nearly all actives have a fitted effect of over 60% in size
Conditions: DT40 wild type chicken cells viability, CellTiter-Glo, 40 h; series mostly up to 68.4 µM
Results filed as inconclusive are left out. Active and inactive are the calls of the source. Calls come from the whole dose curve; as a rule, active = well fitted cell-killing curve with a large enough effect in the repeat runs; inconclusive = weak or mixed curves, or effect the other way; inactive = no such curve, though single readings can be large or run the other way.
Respond only with the outcome that fits, drawn from yes (active), no (inactive)

Exercise: // return assay outcome for S=C=NCCc1ccccc1
Key: no

Exercise: // return assay outcome for CO/N=C(/C1=NOCCO1)c1ccccc1Oc1ncnc(Oc2ccccc2Cl)c1F
Key: yes

Exercise: // return assay outcome for [O]=[Cr][O][Cr]=[O]
Key: no

Exercise: // return assay outcome for ClC1=C(Cl)[C@]2(Cl)[C@H]3[C@H]([C@@H]4C=C[C@H]3C4)[C@@]1(Cl)C2(Cl)Cl
Key: no

Exercise: // return assay outcome for O=C(O)CCCCCCNC1c2ccccc2CCc2ccccc21
Key: no

Exercise: // return assay outcome for CCOP(=S)(OCC)Oc1cc(C)nc(N(CC)CC)n1
Key: yes

Exercise: // return assay outcome for CC1=C2C[C@H]3[C@@H](CC=C4C[C@@H](O)CC[C@@]43C)[C@@H]2CC[C@]12O[C@@H]1C[C@H](C)CN[C@H]1[C@H]2C
Key: yes

Exercise: // return assay outcome for CSC1=N[C@@](C)(c2ccccc2)C(=O)N1Nc1ccccc1
Key: yes

Exercise: // return assay outcome for O=S1(=O)OCC2C(CO1)C1(Cl)C(Cl)=C(Cl)C2(Cl)C1(Cl)Cl (stereo not drawn)
Key: yes

Exercise: // return assay outcome for ClC1(Cl)C2(Cl)C3(Cl)C4(Cl)C(Cl)(Cl)C5(Cl)C3(Cl)C1(Cl)C5(Cl)C24Cl (stereo not drawn)
Key: no

Exercise: // return assay outcome for COc1nc(C)nc(NC(=O)NS(=O)(=O)c2ccccc2Cl)n1
Key: no

Exercise: // return assay outcome for CCC[CH2][Sn]([CH2]CCC)([CH2]CCC)[O][Sn]([CH2]CCC)([CH2]CCC)[CH2]CCC
Key: yes

Exercise: // return assay outcome for CCn1cc[n+](C)c1 (tested in a mixture with another compound)
Key: no
